// reported pIC50 per item
Target: STAT6 activation
Assay: STAT6 activation inhibition test (IL-4-induced alkaline phosphatase STAT6 reporter gene assay)
Assay type: cell-based, human
Settings: concentration giving 50% suppression of alkaline phosphatase activity induced by IL-4 (1 ng/mL), 16 hours; 293 cells stably expressing STAT6 gene and STAT6 reporter gene
pIC50 here: minus log base 10 of the concentration, concentration in moles per litre.

# input Return pIC50 for the following compound: CC1CCc2c(S(=O)(=O)N(C)CCc3ccc(F)cc3)csc2/C1=N\O (stereo not drawn)
# output 8.37

# input Assign pIC50 to the following record: CN(CCc1ccc(F)cc1)S(=O)(=O)c1csc2c1CCC/C2=N/O
# output 9.22

# input Tell me pIC50 reported for CN(CC(O)c1ccc(F)cc1)S(=O)(=O)c1csc2c1CCC/C2=N/O (stereo not drawn)
# output 8.95

# input Identify measured pIC50 associated with CN(CCc1ccc(F)cc1)S(=O)(=O)c1csc2c1CCC(O)/C2=N/O (stereo not drawn)
# output 7.96

# input For the compound CCOc1ccc(NC(=O)O/N=C2/CCCc3c(S(=O)(=O)N(C)CC(O)c4ccc(F)cc4)csc32)cc1 (stereo not drawn) , report pIC50.
# output 9.05

# input Look up and state reported pIC50 for CN(CCc1ccc(F)c([N+](=O)[O-])c1)S(=O)(=O)c1csc2c1CCC/C2=N/O
# output 8.31

# input Read off the recorded pIC50 for C/C(=N/O)c1cc(S(=O)(=O)N(C)CC(O)c2ccc(F)cc2)cs1 (stereo not drawn)
# output 9.20

# input Recall and state the measured pIC50 for CN(CC(O)c1ccc(F)cc1F)S(=O)(=O)c1csc2c1CCC/C2=N/O (stereo not drawn) .
# output 7.81

# input Please give the documented pIC50 of C/C(=N/O)c1ccc(S(=O)(=O)N(C)CCc2ccc(F)cc2)s1
# output 7.52

# input Query pIC50 for CCNC(=O)O/N=C1/CCCc2c(S(=O)(=O)N(C)CC(O)c3ccc(F)cc3)csc21 (stereo not drawn)
# output 7.47

# input Provide pIC50 value for the following compound: CCc1cccc(NC(=O)O/N=C2/CCCc3c(S(=O)(=O)N(C)CC(O)c4ccc(F)cc4)csc32)c1 (stereo not drawn)
# output 7.80

# input Answer with reported pIC50 of CC(C)/C(=N/O)c1cc(S(=O)(=O)N(C)CCc2ccc(F)cc2)c(N)s1
# output 7.40

# input Provide pIC50 value for the following compound: CN(CCc1ccc(F)cc1[N+](=O)[O-])S(=O)(=O)c1csc2c1CCC/C2=N/O
# output 7.68

# input Look up and state reported pIC50 for CN(CCc1ccc(F)cc1)C(=O)c1csc2c1CCC/C2=N/O
# output 9.82

# input Fill in reported pIC50 for this entry: CN(CC(O)c1ccc(F)cc1)S(=O)(=O)c1csc2c1CCC/C2=N\O (stereo not drawn)
# output 9.66

# input Please look at this compound and report its pIC50: C/C(=N\O)c1cc(S(=O)(=O)N(C)CCc2ccc(F)cc2)c(N)s1
# output 7.18

# input Report pIC50, nothing else, for this compound: C/C(=N/O)c1cc(S(=O)(=O)N(C)CCc2ccc(F)cc2)c(N)s1
# output 8.80

# input Supply reported pIC50 belonging to this compound: C/C(=N/O)c1cc(S(=O)(=O)N(C)CC(O)c2ccc(F)cc2)c(N)s1 (stereo not drawn)
# output 8.10
